The origin of these recorded values is patent US20250002564A1.

EXPERIMENTAL_TARGET: T1, SARS-CoV-2 receptor binding domain (RBD), wild type, His-tagged (SARS-CoV-2, UniProt P0DTC2 319-541)
T1 construct: domain: RBD; also called His-tagged RBD; BEI NR52309
ASSAY_COMMENT: BLI competition on His-tagged RBD, after 1st Ab 82
Task for the reader: assign each of the following binders its reported RBD binding of 2nd Ab after 1st Ab (heat map).

[Q] Consider the binder shown here: mAb 82 (antibody, V domains shown, also called IgG 82; Antibody 82) VH: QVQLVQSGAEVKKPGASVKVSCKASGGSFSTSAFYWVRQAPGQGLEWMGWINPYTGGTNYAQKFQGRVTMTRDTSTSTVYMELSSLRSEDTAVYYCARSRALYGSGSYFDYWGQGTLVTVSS VL: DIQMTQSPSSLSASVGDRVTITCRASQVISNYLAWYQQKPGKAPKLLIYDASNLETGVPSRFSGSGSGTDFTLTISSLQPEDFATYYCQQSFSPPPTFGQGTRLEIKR What is its recorded RBD binding of 2nd Ab after 1st Ab (heat map)?
[A] 0.4

[Q] Consider the binder shown here: mAb 46 (antibody, V domains shown, also called IgG 46; Antibody 46) VH: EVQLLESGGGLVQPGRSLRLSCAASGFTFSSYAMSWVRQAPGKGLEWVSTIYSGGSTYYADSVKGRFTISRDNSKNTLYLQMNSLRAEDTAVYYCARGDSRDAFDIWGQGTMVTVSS VL: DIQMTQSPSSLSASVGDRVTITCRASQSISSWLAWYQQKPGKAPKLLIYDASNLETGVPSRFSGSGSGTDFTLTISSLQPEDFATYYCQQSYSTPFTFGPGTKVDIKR What is its recorded RBD binding of 2nd Ab after 1st Ab (heat map)?
[A] 1.2

[Q] Consider the binder shown here: mAb 324 (antibody, V domains shown, also called IgG 324; Antibody 324) VH: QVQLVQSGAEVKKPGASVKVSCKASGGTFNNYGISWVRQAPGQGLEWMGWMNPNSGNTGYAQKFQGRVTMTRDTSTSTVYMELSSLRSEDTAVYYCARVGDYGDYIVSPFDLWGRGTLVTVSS VL: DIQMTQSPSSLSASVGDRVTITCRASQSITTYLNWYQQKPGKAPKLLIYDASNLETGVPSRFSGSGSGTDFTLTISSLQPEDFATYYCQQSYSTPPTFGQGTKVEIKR What is its recorded RBD binding of 2nd Ab after 1st Ab (heat map)?
[A] 0.2

[Q] Consider the binder shown here: mAb 52 (antibody, V domains shown, also called IgG 52; Antibody 52) VH: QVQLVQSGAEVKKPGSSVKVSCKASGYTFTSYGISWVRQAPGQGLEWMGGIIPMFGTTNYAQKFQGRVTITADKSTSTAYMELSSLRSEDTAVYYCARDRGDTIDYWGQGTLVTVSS VL: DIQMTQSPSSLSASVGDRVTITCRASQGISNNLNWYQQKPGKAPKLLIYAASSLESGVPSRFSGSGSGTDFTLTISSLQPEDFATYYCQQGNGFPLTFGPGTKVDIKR What is its recorded RBD binding of 2nd Ab after 1st Ab (heat map)?
[A] 0.8
